Molecular target: VHL (co-expressed with Elongin B and Elongin C) (Homo sapiens (Human), UniProt P40337)
Sequence (P40337 whole entry, looked up): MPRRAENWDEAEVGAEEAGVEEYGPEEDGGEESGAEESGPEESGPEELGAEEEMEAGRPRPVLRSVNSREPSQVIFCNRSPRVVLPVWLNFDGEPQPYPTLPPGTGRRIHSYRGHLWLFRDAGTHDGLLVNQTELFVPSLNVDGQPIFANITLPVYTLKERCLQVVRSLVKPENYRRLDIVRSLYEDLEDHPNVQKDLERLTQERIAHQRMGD
Sequence (Q15370 whole entry partner, looked up): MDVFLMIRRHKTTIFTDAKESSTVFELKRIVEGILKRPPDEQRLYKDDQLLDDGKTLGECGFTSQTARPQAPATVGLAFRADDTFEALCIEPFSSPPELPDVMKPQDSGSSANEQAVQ
Sequence (Q15369 whole entry partner, looked up): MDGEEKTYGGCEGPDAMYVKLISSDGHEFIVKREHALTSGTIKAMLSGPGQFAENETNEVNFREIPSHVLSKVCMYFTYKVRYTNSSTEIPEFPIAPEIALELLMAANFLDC
Experiment: Measurement of intermolecular interactions using surface plasmon resonance (Biacore T200), Kd value for VHL
Type: binding
Details: SPR, immobilized VHL, 25° C.; read-out: Kd
pKd: −log10 of the molar value.
Provide the reported pKd of each item.

Q: Provide only the value of recorded pKd for CC(=O)N[C@H](C(=O)N1C[C@H](O)C[C@H]1c1ncc(Cc2cccc(Br)c2)[nH]1)C(C)(C)C [Example 90]
Result: 5.00 to 6.00

Q: Assign pKd to the following record: COc1cc(C(C(=O)N2C[C@H](O)C[C@H]2c2ncc(Cc3ccc(C(F)(F)F)cc3)[nH]2)C(C)C)on1 (some centres unmarked) [Example 79]
Result: 5.00 to 6.00

Q: Look up and state reported pKd for COc1cc(C(C(=O)N2C[C@H](O)C[C@H]2c2nccn2Cc2ccnc(-c3ccc(C(F)(F)F)cc3)c2)C(C)C)on1 (some centres unmarked) [Example 102]
Result: 4.30 to 5.00

Q: Annotate the compound CC(=O)N[C@H](C(=O)N1C[C@H](O)C[C@H]1c1nc(C(=O)N(C)Cc2cccc(-c3scnc3C)c2)c[nH]1)C(C)(C)C [Example 29] with its measured pKd.
Result: 5.00 to 6.00

Q: Consider the compound CCCc1nnc(C(C(=O)N2C[C@H](O)C[C@H]2c2ncc[nH]2)C(C)C)o1 (some centres unmarked) [Example 162] and give its recorded pKd.
Result: 4.30 to 5.00

Q: Quick one: give measured pKd for COc1cc(C(C(=O)N2C[C@H](O)C[C@H]2c2nc(C(=O)N3CCN(c4ccccc4)CC3)c[nH]2)C(C)C)on1 (some centres unmarked) [Example 140]
Result: 5.00 to 6.00

Q: Dear colleague, please send me the reported pKd for COc1cccc(CN(C)C(=O)c2c[nH]c([C@@H]3C[C@@H](O)CN3C(=O)[C@@H](NC(C)=O)C(C)(C)C)n2)c1 [Example 24] when you can.
Result: 5.00 to 6.00

Q: For COc1cc(C(C(=O)N2C[C@H](O)C[C@H]2c2nc(C(=O)N(C)[C@H](C)C(=O)NCc3ccccc3)c[nH]2)C(C)C)on1 (some centres unmarked) [Example 159] , write its pKd.
Result: > 6.00

Q: Specify pKd for COc1cc(C(C(=O)N2C[C@H](O)C[C@H]2c2nc(C(=O)N3CCC(c4ccccc4)C3)c[nH]2)C(C)C)on1 (some centres unmarked) [Example 111] and stop.
Result: > 6.00

Q: Give a short answer stating reported pKd for CC(=O)N[C@H](C(=O)N1C[C@H](O)C[C@H]1c1ncc(Cc2ccc(-c3scnc3C)cc2)[nH]1)C(C)(C)C [Example 93] .
Result: 5.00 to 6.00

Q: Name the recorded pKd of the item CNC(=O)c1ccccc1-c1cnc([C@@H]2C[C@@H](O)CN2C(=O)C(c2cc(OC)no2)C(C)C)[nH]1 (some centres unmarked) [Example 64] in your answer.
Result: 5.00 to 6.00

Q: Specify reported pKd for the compound shown: CC(=O)N[C@H](C(=O)N1C[C@H](O)C[C@H]1c1nc(C(=O)N(C)Cc2cccc3ccccc23)c[nH]1)C(C)(C)C [Example 31]
Result: 5.00 to 6.00

Q: Provide measured pKd value, entry: COc1cc(C(C(=O)N2C[C@H](O)C[C@H]2c2ncc[nH]2)C(C)C)on1 (some centres unmarked) [Example 112]
Result: 5.00 to 6.00

Q: Given COc1cc(C(C(=O)N2C[C@H](O)C[C@H]2c2nc(C(=O)N3CCC(Oc4ccccc4)CC3)c[nH]2)C(C)C)on1 (some centres unmarked) [Example 1] , respond with its pKd.
Result: 5.00 to 6.00

====

Target: VHL (co-expressed with Elongin B and Elongin C) (Homo sapiens (Human))
Test: Measurement of intermolecular interactions using surface plasmon resonance (Biacore T200), Kd value for VHL
Format: binding
Conditions: SPR, immobilized VHL, 25° C.; read-out: Kd
outcome_measure: Kd

Q: Supply Kd value. Item: COc1cc(C(C(=O)N2C[C@H](O)C[C@H]2c2nc(C(=O)N(C)Cc3ccc(-c4ccnc(C)c4)cc3)c[nH]2)C(C)C)on1 (stereo partly drawn)
Result: < 1000 nM

Q: Provide one value: measured Kd of `CC(=O)N[C@H](C(=O)N1C[C@H](O)C[C@H]1c1nc(C(=O)N(C)Cc2ccccc2)c[nH]1)C(C)(C)C`
Result: 1000 to 10000 nM

Q: Note Kd for the molecule shown: COc1cc(C(C(=O)N2C[C@H](O)C[C@H]2c2nc(C(=O)N(Cc3ccc(-c4scnc4C)cc3)CC(F)(F)F)c[nH]2)C(C)C)on1 (stereo partly drawn)
Result: 1000 to 10000 nM

====

Target: VHL (co-expressed with Elongin B and Elongin C) (Homo sapiens (Human))
Experiment: Measurement of intermolecular interactions using surface plasmon resonance (Biacore T200), Kd value for VHL
Type: binding
outcome_measure: Kd

Q: Could you please provide reported Kd for COc1cc(C(C(=O)N2C[C@H](O)C[C@H]2c2nc(C(=O)N3CCC(Nc4ccccc4)CC3)c[nH]2)C(C)C)on1 (stereo partly shown) [Example 150] ? Thanks!
Result: 1 to 10 µM

====

Assignment: determine reported Kd for the given molecules.
Target: VHL (co-expressed with Elongin B and Elongin C) (Homo sapiens (Human), UniProt P40337)
Assay: Measurement of intermolecular interactions using surface plasmon resonance (Biacore T200), Kd value for VHL
Format: binding
Details: SPR, immobilized VHL, 25° C.; read-out: Kd

Q: Please indicate Kd recorded for `CC(=O)N[C@H](C(=O)N1C[C@H](O)C[C@H]1c1ncc(-c2ccc(-c3scnc3C)cc2)[nH]1)C(C)(C)C`
Result: 1 to 10 µM

Q: Report measured Kd; entry is CNC(=O)c1nc([C@@H]2C[C@@H](O)CN2C(=O)C(c2cc(OC)no2)C(C)C)[nH]c1-c1ccc(OC)cc1 (stereo partly shown)
Result: 1 to 10 µM

Q: Give the value of Kd reported for the following: CCCc1nc(C(C(=O)N2C[C@H](O)C[C@H]2c2ncc[nH]2)C(C)C)no1 (stereo partly shown)
Result: 10 to 50 µM

Q: Look up and report measured Kd for this entry: `CC(=O)N[C@H](C(=O)N1C[C@H](O)C[C@H]1c1nc(C(=O)N(C)Cc2ccccc2Cl)c[nH]1)C(C)(C)C`
Result: 1 to 10 µM

====

Consider the following molecules; for each one, report its pKd.
Target: UniProt P40337
Experiment: Measurement of intermolecular interactions using surface plasmon resonance (Biacore T200), Kd value for VHL
Format: binding
Conditions: SPR, immobilized VHL, 25° C.; read-out: Kd
pKd: −log10 of the molar value.

Q: State pKd (UniProt P40337) of COc1cc(C(C(=O)N2C[C@H](O)C[C@H]2c2nccn2Cc2ccccc2Oc2ccccc2)C(C)C)on1 (some centres unmarked) .
Result: 4.30 to 5.00

Q: Specify the recorded pKd for `CC(=O)N[C@H](C(=O)N1C[C@H](O)C[C@H]1c1nc(C(=O)N(C)Cc2ccncc2)c[nH]1)C(C)(C)C` , system: UniProt P40337.
Result: 5.00 to 6.00

Q: Fill in: pKd on UniProt P40337, entry COc1cc(C(C(=O)N2C[C@H](O)C[C@H]2c2nc(C(=O)N(C)CC3CCN(Cc4ccccc4F)CC3)c[nH]2)C(C)C)on1 (some centres unmarked)
Result: 5.00 to 6.00

Q: Recall the reported pKd of COc1cc(C(C(=O)N2C[C@H](O)C[C@H]2c2nc(C)cs2)C(C)C)on1 (some centres unmarked) on UniProt P40337 and write it down.
Result: 4.30 to 5.00

Q: Using UniProt P40337 as the test system, report measured pKd of COc1cc(C(C(=O)N2C[C@H](O)C[C@H]2c2nc(C(=O)N3CCC(c4ccncc4)CC3)c[nH]2)C(C)C)on1 (some centres unmarked) .
Result: 5.00 to 6.00

Q: System UniProt P40337. Read-out pKd. Item COc1cc(C(C(=O)N2C[C@H](O)C[C@H]2c2nc(C(=O)N3CCC(OCc4ccccc4)CC3)c[nH]2)C(C)C)on1 (some centres unmarked) . Report value.
Result: 5.00 to 6.00

Q: Give pKd for this entry on UniProt P40337: `CC(=O)N[C@H](C(=O)N1C[C@H](O)C[C@H]1c1nc(C(=O)N(C)Cc2ccc(C(F)(F)F)cc2)c[nH]1)C(C)(C)C`
Result: 5.00 to 6.00

Q: Please report pKd with UniProt P40337 for item `CC(=O)N[C@H](C(=O)N1C[C@H](O)C[C@H]1c1ncc(-c2ccccc2C(F)(F)F)[nH]1)C(C)(C)C` .
Result: 5.00 to 6.00

====

Provide the reported pKd of each item.
Target: VHL (co-expressed with Elongin B and Elongin C) (Homo sapiens (Human), UniProt P40337)
Experiment: Measurement of intermolecular interactions using surface plasmon resonance (Biacore T200), Kd value for VHL
Format: binding
Conditions: SPR, immobilized VHL, 25° C.; read-out: Kd
pKd: −log10 of the molar value.

Q: Please look at this compound and report its pKd: COc1cccc(Cc2cnc([C@@H]3C[C@@H](O)CN3C(=O)C(c3cc(OC)no3)C(C)C)[nH]2)c1 (some centres unmarked)
Result: 5.00 to 6.00

Q: Read off the recorded pKd for COc1cccc(-c2cnc([C@@H]3C[C@@H](O)CN3C(=O)C(c3cc(OC)no3)C(C)C)[nH]2)c1 (some centres unmarked)
Result: 5.00 to 6.00

Q: Please report pKd for the following compound: `CC(=O)N[C@H](C(=O)N1C[C@H](O)C[C@H]1c1nc(C(=O)N(C)Cc2ccc3ccccc3c2)c[nH]1)C(C)(C)C`
Result: 5.00 to 6.00

Q: Give a short answer stating reported pKd for `CC(=O)N[C@H](C(=O)N1C[C@H](O)C[C@H]1c1nc(C(=O)N(C)Cc2cccc(Cl)c2)c[nH]1)C(C)(C)C` .
Result: 5.00 to 6.00

Q: Please list pKd recorded for the compound COc1ccc(-c2cnc([C@@H]3C[C@@H](O)CN3C(=O)C(c3cc(OC)no3)C(C)C)[nH]2)cc1 (some centres unmarked)
Result: 5.00 to 6.00

Q: Read off the recorded pKd for COc1cccc(-c2nc([C@@H]3C[C@@H](O)CN3C(=O)C(c3cc(OC)no3)C(C)C)[nH]c2-c2cccc(OC)c2)c1 (some centres unmarked)
Result: 5.00 to 6.00

Q: Provide measured pKd value, entry: COc1cc(C(C(=O)N2C[C@H](O)C[C@H]2c2nccn2Cc2cccc(Oc3ccccc3)c2)C(C)C)on1 (some centres unmarked)
Result: 4.30 to 5.00

Q: Please list pKd recorded for the compound `CC(=O)N[C@H](C(=O)N1C[C@H](O)C[C@H]1c1nc(C(=O)N(C)Cc2cccc(F)c2)c[nH]1)C(C)(C)C`
Result: 5.00 to 6.00

Q: In one line, give reported pKd of the entry COc1cc(C(C(=O)N2C[C@H](O)C[C@H]2c2nccn2CC(=O)Nc2ccccc2)C(C)C)on1 (some centres unmarked) .
Result: 4.30 to 5.00

Q: Supply recorded pKd for COc1cc(C(C(=O)N2C[C@H](O)C[C@H]2c2nc(C(=O)N(C)Cc3ccc(-c4scnc4C)cc3)c[nH]2)C(C)C)on1 (some centres unmarked) here.
Result: > 6.00

Q: Item Cc1cc(-c2cnn(C(C(=O)N3C[C@H](O)C[C@H]3c3ncc[nH]3)C(C)C)c2)on1 (some centres unmarked) : provide pKd
Result: 4.30 to 5.00

Q: Please indicate pKd recorded for COc1ccc(-c2[nH]c([C@@H]3C[C@@H](O)CN3C(=O)C(c3cc(OC)no3)C(C)C)nc2C(F)(F)F)cc1 (some centres unmarked)
Result: 5.00 to 6.00

Q: Output pKd of `CC(=O)N[C@H](C(=O)N1C[C@H](O)C[C@H]1c1nc(C(=O)N(C)Cc2cccc(C(F)(F)F)c2)c[nH]1)C(C)(C)C`
Result: 5.00 to 6.00

Q: Tell me its pKd given COc1cc(C(C(=O)N2C[C@H](O)C[C@H]2c2ncc(-c3cccc(-c4scnc4C)c3)[nH]2)C(C)C)on1 (some centres unmarked) as the entry.
Result: > 6.00
